Provenance of the data: patent US9808425B2

# Test system: A549 cells
# protocol-details: DNR-mediated cytotoxicity, MTS assay
# Type: cell-based
# condition-set: Homo sapiens, A549, 72 h, read-out: IC50 AVG
pIC50: −log10 of the molar value.

| molecule | target-or-system | pIC50 |
| --- | --- | --- |
| COc1cccc2c1C(=O)c1c(O)c3c(c(O)c1C2=O)C[C@@](O)(C(C)=O)C[C@@H]3O[C@H]1C[C@H](N)[C@H](O)[C@H](C)O1 [Free DNR, daunorubicin] | A549 cells | 4.82 |
